target: UDP-glucuronosyltransferase 1A1 (Homo sapiens, UniProt P22309); test: Inhibition of human recombinant UGT1A1 expressed in HEK293 cells assessed as reduction in estradiol 3-glucuronidation by LC-MS/MS method; type: ADME, cell-based; conditions: read-out: IC50
Sequence (P22309 whole entry): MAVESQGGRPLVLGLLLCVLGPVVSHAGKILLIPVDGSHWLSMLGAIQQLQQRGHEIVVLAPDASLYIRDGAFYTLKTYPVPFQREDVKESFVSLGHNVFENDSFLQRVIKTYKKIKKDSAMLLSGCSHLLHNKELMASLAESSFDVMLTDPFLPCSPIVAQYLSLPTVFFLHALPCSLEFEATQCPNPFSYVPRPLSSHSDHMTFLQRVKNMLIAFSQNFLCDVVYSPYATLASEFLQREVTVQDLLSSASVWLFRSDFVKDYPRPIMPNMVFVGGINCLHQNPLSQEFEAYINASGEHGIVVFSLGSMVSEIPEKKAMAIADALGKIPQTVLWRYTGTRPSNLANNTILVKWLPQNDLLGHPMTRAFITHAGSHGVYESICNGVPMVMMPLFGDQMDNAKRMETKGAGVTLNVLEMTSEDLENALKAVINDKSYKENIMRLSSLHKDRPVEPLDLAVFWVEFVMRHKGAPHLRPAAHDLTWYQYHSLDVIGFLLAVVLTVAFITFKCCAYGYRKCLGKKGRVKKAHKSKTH
# log10 of IC50 listing for each entry below
Lab note - IC50 converted to log10 from values in µM.

Illustrative cases are given below, each with its answer.
N[C@@H](Cc1cc(I)c(Oc2cc(I)c(O)c(I)c2)c(I)c1)C(=O)O	0.75
O=C1c2ccc(O)cc2C(=O)c2ccc(O)cc21	0.60
O=c1cc(-c2ccccc2)oc2cc(O)c(O)c(O)c12	0.64
CC(=O)N1CCN(c2ccc(OCC3COC(Cn4ccnc4)(c4ccc(Cl)cc4Cl)O3)cc2)CC1 (stereo not drawn)	1.11
Oc1cccc2ccccc12	2.45

Q: Please give the measured log10 of IC50 for this compound: C#C[C@]1(O)CC[C@H]2[C@@H]3CCc4cc(O)ccc4[C@H]3CC[C@@]21C
Result: 1.64

* * *

biological target: UDP-glucuronosyltransferase 1A1 (Homo sapiens, UniProt P22309); assay: Inhibition of human recombinant UGT1A1 expressed in HEK293 cells assessed as reduction in bilirubin glucuronidation by LC-MS/MS method; type: ADME, cell-based
pIC50: −log10 of the molar value.
Think of 4 as a floor: if pIC50 stands on it or above, it is met; beneath it, not met.

Solved entries:
CC(=O)N1CCN(c2ccc(OCC3COC(Cn4ccnc4)(c4ccc(Cl)cc4Cl)O3)cc2)CC1 (centres undefined) [KETOCONAZOLE]	met
CC(C)=CCC/C(C)=C/CC/C(C)=C/CO [FARNESOL]	met
N[C@@H](Cc1cc(I)c(Oc2cc(I)c(O)c(I)c2)c(I)c1)C(=O)O [LEVOTHYROXINE]	met

Q: Say whether Cc1nnc(C(=O)NC(C)(C)c2nc(C(=O)NCc3ccc(F)cc3)c(O)c(=O)n2C)o1 shows pIC50 of 4 or more.
Result: not met

Q: API: above_or_equal(metric=pIC50, cutoff=4) for item Oc1cccc2ccccc12 [1-NAPHTHOL]
Result: not met

Q: Does the reported pIC50 for Nc1nc2ccc(OC(F)(F)F)cc2s1 [RILUZOLE] fall at or above the 4 mark?
Result: not met

Q: Item O=C(O)c1cccnc1Nc1cccc(C(F)(F)F)c1 [NIFLUMIC ACID] with pIC50 of 4 or above?
Result: met

Q: Please tell me: is the molecule C#C[C@]1(O)CC[C@H]2[C@@H]3CCc4cc(O)ccc4[C@H]3CC[C@@]21C [ETHINYL ESTRADIOL] at or over 4 in terms of pIC50?
Result: met

Q: Say whether O=c1cc(-c2ccccc2)oc2cc(O)c(O)c(O)c12 [BAICALEIN] shows pIC50 of 4 or more.
Result: met

Q: Textbook exercise: given the entry CCc1c2c(nc3ccc(O)cc13)-c1cc3c(c(=O)n1C2)COC(=O)[C@]3(O)CC [7-ETHYL-10-HYDROXYCAMPTOTHECIN] , state whether its pIC50 is greater than or equal to 4.
Result: not met

Q: hey, is pIC50 for this one >= 4? O=c1c(-c2ccc(O)cc2)coc2cc(O)ccc12 [DAIDZEIN]
Result: met

Q: Tell me whether pIC50 is at least 4 here: O=C1c2ccc(O)cc2C(=O)c2ccc(O)cc21
Result: met
